Data export: GI50 values recorded with HCT-15.
Parameter: GI50 (µM)

>  <Molecule>
Cc1ccc(/C=C2\CCCC\C2=N\O)cc1

>  <Parameter>
GI50

>  <Relation qualifier>
=

>  <Observed value>
44.6

$$$$
>  <Molecule>
O=C1c2ccccc2C(=O)c2c1sc1nc3ccccc3n21

>  <Parameter>
GI50

>  <Relation qualifier>
=

>  <Observed value>
1.36

$$$$
>  <Molecule>
CC1CCC2C(C(=O)O[C@H]3C4CCO[C@@H](OC5OC(CO)C(O)C(O)C5O)C4[C@@]4(CO)O[C@@H]34)=CO[C@@H](OC3OC(CO)C(O)C(O)C3O)C12 (stereo not given in full)

>  <Parameter>
GI50

>  <Relation qualifier>
>

>  <Observed value>
10

$$$$
>  <Molecule>
N#CCCN(CCC#N)c1ccc(/C=C2\N=C(c3ccccc3)N(c3ccc(F)cc3)C2=O)cc1

>  <Parameter>
GI50

>  <Relation qualifier>
>

>  <Observed value>
100

$$$$
>  <Molecule>
Cc1c(C(=O)/C=C/c2ccccc2Cl)[n+]([O-])c2ccccc2[n+]1[O-]

>  <Parameter>
GI50

>  <Relation qualifier>
=

>  <Observed value>
10.1

$$$$

###

Tested on: SF-268
Assay: NCI tumour cell line growth inhibition, 48 h
Activity calls are given as the source filed them. Rule as the data show it: active = GI50 up to about 1.1 µM and inactive = higher.
Labels: active, inactive

>  <Molecule>
COc1c2c(cc3c1C(O)N1CC[C@]34[C@H]3O[C@H]3[C@H](OC)C[C@@H]14)OCO2 (some centres undefined)

>  <Category>
inactive

$$$$
>  <Molecule>
Cc1c(NC(=S)N/N=C\C(=N/NC(=S)Nc2c(C)n(C)n(-c3ccccc3)c2=O)c2ccccc2)c(=O)n(-c2ccccc2)n1C

>  <Category>
inactive

$$$$
>  <Molecule>
O=c1ccn(C2OC(COC3CCCCO3)C(OC3CCCCO3)C2OC2CCCCO2)c(=O)n1-c1ccccc1 (centres undefined)

>  <Category>
inactive

$$$$
>  <Molecule>
O=C1c2cc(Cl)ccc2-n2c(noc2=O)C2CSCN12 (centres undefined)

>  <Category>
inactive

$$$$
>  <Molecule>
O=c1oc2c(ccc3c(O)cccc32)c2c1CCCC2

>  <Category>
inactive

$$$$
>  <Molecule>
COc1cc2c(c(OC)c1OC)-c1ccc(SC)c(=O)cc1[C@@H](NC(=O)c1ccc(F)cc1)CC2

>  <Category>
active

$$$$
>  <Molecule>
CC(C)OP(=O)(c1ccccc1)c1ccc2c(c1)OCCOCCOCCOCCO2 (centres undefined)

>  <Category>
inactive

$$$$
>  <Molecule>
CC(C)C1(O)C(=O)N(c2c(F)c(F)c(F)c(F)c2F)C(=S)N1CCSc1ccccc1 (centres undefined)

>  <Category>
inactive

$$$$
>  <Molecule>
COC(CC1(/C=C/O[Si](C(C)C)(C(C)C)C(C)C)C(=O)N(COCC[Si](C)(C)C)c2ccccc21)OC (centres undefined)

>  <Category>
inactive

$$$$

###

Test system: DLD-1
Test: NCI tumour cell line growth inhibition, 48 h
Activity calls are given as the source filed them. Rule as the data show it: active = GI50 up to about 1.1 µM and inactive = higher.
Possible outcomes: YES for active, NO for inactive

>  <Molecule>
CC(C)=CC1CCc2ccccc2N1S(=O)(=O)c1ccc(C)cc1 (stereo not drawn)

>  <Subject of test>
DLD-1

>  <Category>
NO

$$$$
>  <Molecule>
Cc1ccc(S(=O)(=O)N/N=C(/c2nc3ccc([N+](=O)[O-])cc3nc2O)C(O)c2ccc(C(O)/C(=N\NS(=O)(=O)c3ccc(C)cc3)c3nc4ccc([N+](=O)[O-])cc4nc3O)cc2)cc1 (stereo not drawn)

>  <Subject of test>
DLD-1

>  <Category>
NO

$$$$
>  <Molecule>
C\C=C/C=C/C=C/C(=O)O

>  <Subject of test>
DLD-1

>  <Category>
NO

$$$$
>  <Molecule>
COC(=O)C1=C(C)N(NC(N)=O)C(C)(O)C12CCOC2=O (stereo not drawn)

>  <Subject of test>
DLD-1

>  <Category>
NO

$$$$
>  <Molecule>
CC(=O)C1(O)Cc2c(O)c3c(c(O)c2C(OC2CC(N)C(O)C(C)O2)C1)C(=O)c1ccccc1C3=O (stereo not drawn)

>  <Subject of test>
DLD-1

>  <Category>
YES

$$$$
>  <Molecule>
[N-]=[N+]=NC(CI)c1cn([C@H]2C[C@H](O)[C@@H](CO)O2)c(=O)[nH]c1=O (stereo partly drawn)

>  <Subject of test>
DLD-1

>  <Category>
NO

$$$$
>  <Molecule>
C=C1C(=O)OC2C1CC[C@H](C)C1(O)C(O)CC(=O)[C@@]21C (stereo partly drawn)

>  <Subject of test>
DLD-1

>  <Category>
NO

$$$$
>  <Molecule>
CC1(O)CC2C(CC1SC1CC3C(CC1(C)O)C3(C)C)C2(C)C (stereo not drawn)

>  <Subject of test>
DLD-1

>  <Category>
NO

$$$$
>  <Molecule>
Cc1cccc(C)c1NC(=O)CCC(=O)/N=C(\N)NC#N

>  <Subject of test>
DLD-1

>  <Category>
NO

$$$$
>  <Molecule>
COc1ccc(Br)c(CN2CCc3ccccc32)c1OS(=O)(=O)c1ccc(C)cc1

>  <Subject of test>
DLD-1

>  <Category>
NO

$$$$
>  <Molecule>
C/C=C(/CCC1NCCc2c1[nH]c1ccccc21)[Si](C)(C)C (stereo not drawn)

>  <Subject of test>
DLD-1

>  <Category>
NO

$$$$
>  <Molecule>
Cn1nc(-c2ccccc2)c(C(=O)/C=C/c2ccc(Cl)cc2)c(N2CCCCC2)c1=O

>  <Subject of test>
DLD-1

>  <Category>
NO

$$$$
>  <Molecule>
O=C1NC2CCCCCC2C12CCCCC2 (stereo not drawn)

>  <Subject of test>
DLD-1

>  <Category>
NO

$$$$

###

System: COLO 205
Experiment: NCI tumour cell line growth inhibition, 48 h
The source made the active and inactive calls. Cut-off read from the data, not from the text of the source: active = GI50 up to about 1.1 µM and inactive = higher.
Possible outcomes: y for active, n for inactive

>  <Compound>
COc1cc(I)c2c3c1OC1C34CCN(C)C(C2)C4=CC(I)C1(OC)OC (stereo not given)

>  <Category>
n

$$$$
>  <Compound>
CSc1ncc2c(n1)-c1ccccc1OC2

>  <Category>
n

$$$$
>  <Compound>
COc1ccc2c(c1O)[C@@]13CCCC=C1[C@@H](C2)[N+](C)(C)CC3

>  <Category>
n

$$$$
>  <Compound>
CC(=O)Oc1ccc(Nn2c3ccccc3c3ccccc32)c(C)c1

>  <Category>
n

$$$$
>  <Compound>
CC(=O)C1(O)Cc2c(O)c3c(c(O)c2C(OC2CC(N)C(O)C(C)O2)C1)C(=O)c1ccccc1C3=O (stereo not given)

>  <Category>
y

$$$$

###

Test system: HOP-92
Assay: NCI tumour cell line growth inhibition, 48 h
Active and inactive are the calls of the source. Rule as the data show it: active = GI50 up to about 1.1 µM and inactive = higher.
# GI50 per entry
Parameter: GI50

>  <Molecule>
COc1ccc2c(c1)CCC(CN1CCN(CCOC(c3ccc(F)cc3)c3ccc(F)cc3)CC1)C2O (stereo not given)

>  <Subject of test>
HOP-92

>  <Parameter>
GI50

>  <Observed value>
12.2 µM (inactive)

$$$$
>  <Molecule>
O=C(CC1(O)C(=O)Nc2c(Cl)cc(Cl)cc21)c1ccco1 (stereo not given)

>  <Subject of test>
HOP-92

>  <Parameter>
GI50

>  <Observed value>
36.6 µM (inactive)

$$$$
>  <Molecule>
Cc1c(NC(=O)Nc2c(Cl)cccc2Cl)c(=O)n(-c2ccccc2)n1C

>  <Subject of test>
HOP-92

>  <Parameter>
GI50

>  <Observed value>
> 100 µM (inactive)

$$$$
>  <Molecule>
COc1ccc2nc3cc(Cl)ccc3c(NCCNCCCNC(=O)c3cc(-c4ccccc4)nc4ccccc34)c2c1

>  <Subject of test>
HOP-92

>  <Parameter>
GI50

>  <Observed value>
> 100 µM (inactive)

$$$$
>  <Molecule>
CCCCCCCCCCCCN1[C@H]2CCC[C@H]2C(O)[C@@H]2CCC[C@@H]21 (stereo not given in full)

>  <Subject of test>
HOP-92

>  <Parameter>
GI50

>  <Observed value>
> 100 µM (inactive)

$$$$

###

Test system: SF-295
Experiment: NCI tumour cell line growth inhibition, 48 h
Active and inactive are the calls of the source. No stated cut-off is given here; in the data, active = GI50 up to about 1.1 µM and inactive = higher.
Parameter: GI50

>  <Molecule>
CC(=O)NNc1nc(C)c(C(=O)NNC(=O)C(=O)Nc2ccc(C)c(C)c2)s1

>  <Observed value>
78.5 µM (inactive)

$$$$
>  <Molecule>
O=C1NC(=O)C(c2c[nH]c3ccccc23)=C1c1cnc[nH]1

>  <Observed value>
> 100 µM (inactive)

$$$$
>  <Molecule>
COc1ccc(/C(Cl)=C(\C=O)c2ccc(OC)c(OC)c2)cc1

>  <Observed value>
25.4 µM (inactive)

$$$$
>  <Molecule>
COc1cc2c(cc1OC)C1c3ccccc3C(C#N)(C2)N(C(=O)c2ccccc2)C1O (stereo not given)

>  <Observed value>
> 100 µM (inactive)

$$$$
>  <Molecule>
O=P1(N(CCCl)CCCl)Oc2ccc(Cl)cc2C(C(Cl)(Cl)Cl)c2cc(Cl)ccc2O1 (stereo not given)

>  <Observed value>
3.68 µM (inactive)

$$$$
